Provenance of the data: patent US8871753B2

# target or system: human JAK3 (a.a. 781-1124) (Homo sapiens, UniProt P52333)
# Construct: JAK3 (a.a. 781-1124); His tag (N); made in house; host or cells: insect cells (baculovirus)
# Sequence (P52333 781-1124): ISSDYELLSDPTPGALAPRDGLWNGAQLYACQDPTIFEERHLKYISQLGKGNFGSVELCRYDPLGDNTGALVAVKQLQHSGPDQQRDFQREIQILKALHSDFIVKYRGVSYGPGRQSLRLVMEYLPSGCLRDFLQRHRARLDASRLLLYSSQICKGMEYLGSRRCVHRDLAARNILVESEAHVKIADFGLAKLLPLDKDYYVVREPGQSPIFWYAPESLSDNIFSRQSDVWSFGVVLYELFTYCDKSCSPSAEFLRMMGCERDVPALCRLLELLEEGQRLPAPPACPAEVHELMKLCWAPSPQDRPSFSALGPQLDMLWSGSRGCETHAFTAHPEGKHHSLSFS
# assay notes: In vitro JAK kinase assay (HTRF, phosphorylation of a biotinylated peptide), JAK3
# Type: biochemical
# measurement context: Table D1
Where a name gives a salt, the structure may show the parent alone.
IC50 listing for selected compounds.

compound | target or system | IC50
Clc1cnc2nc1Nc1cccc(c1)CCNc1cccc(c1)N2 [Example D78, bis(trifluoroacetate)] | human JAK3 (a.a. 781-1124) (Homo sapiens, UniProt P52333) | 30 nM
O=C(Nc1ccccc1)Nc1cc2cc(c1)OCCSc1cccc(c1)Nc1nc(ncc1Cl)N2 [Example D65, trifluoroacetate] | human JAK3 (a.a. 781-1124) (Homo sapiens, UniProt P52333) | 16 nM
O=C(Nc1ccccc1)N1CCC(COc2ccc3cc2CCc2cncc(c2)Nc2ncc(Cl)c(n2)N3)CC1 [Example D228, bis(trifluoroacetate)] | human JAK3 (a.a. 781-1124) (Homo sapiens, UniProt P52333) | > 400 nM
O=C(COc1ccc2cc1CCc1cncc(c1)Nc1ncc(Cl)c(n1)N2)N1CCN(c2cc(Cl)cc(Cl)n2)CC1 [Example D247, tris(trifluoroacetate)] | human JAK3 (a.a. 781-1124) (Homo sapiens, UniProt P52333) | > 400 nM
O=C(COc1ccc2cc1CCc1cncc(c1)Nc1ncc(Cl)c(n1)N2)N1CCN(C(=O)C2CCCO2)CC1 (stereo not shown) [Example D272, bis(trifluoroacetate)] | human JAK3 (a.a. 781-1124) (Homo sapiens, UniProt P52333) | > 400 nM
CN1c2cccc(c2)CCc2cncc(c2)Nc2nccc1n2 [Example D224, bis(trifluoroacetate)] | human JAK3 (a.a. 781-1124) (Homo sapiens, UniProt P52333) | > 400 nM

Turning now to a further compound:
Requested read-out: IC50. Entry: Clc1cnc2nc1Nc1cccc(c1)COc1cccc(c1)N2 [Example D6, trifluoroacetate]
> 100 nM

----------
# target or system: Recombinant Human Anaplastic Lymphoma Kinase (Homo sapiens)
# Construct: purchased Invitrogen, Carlsbad, Calif
# Sequence (Q9UM73 19-1620): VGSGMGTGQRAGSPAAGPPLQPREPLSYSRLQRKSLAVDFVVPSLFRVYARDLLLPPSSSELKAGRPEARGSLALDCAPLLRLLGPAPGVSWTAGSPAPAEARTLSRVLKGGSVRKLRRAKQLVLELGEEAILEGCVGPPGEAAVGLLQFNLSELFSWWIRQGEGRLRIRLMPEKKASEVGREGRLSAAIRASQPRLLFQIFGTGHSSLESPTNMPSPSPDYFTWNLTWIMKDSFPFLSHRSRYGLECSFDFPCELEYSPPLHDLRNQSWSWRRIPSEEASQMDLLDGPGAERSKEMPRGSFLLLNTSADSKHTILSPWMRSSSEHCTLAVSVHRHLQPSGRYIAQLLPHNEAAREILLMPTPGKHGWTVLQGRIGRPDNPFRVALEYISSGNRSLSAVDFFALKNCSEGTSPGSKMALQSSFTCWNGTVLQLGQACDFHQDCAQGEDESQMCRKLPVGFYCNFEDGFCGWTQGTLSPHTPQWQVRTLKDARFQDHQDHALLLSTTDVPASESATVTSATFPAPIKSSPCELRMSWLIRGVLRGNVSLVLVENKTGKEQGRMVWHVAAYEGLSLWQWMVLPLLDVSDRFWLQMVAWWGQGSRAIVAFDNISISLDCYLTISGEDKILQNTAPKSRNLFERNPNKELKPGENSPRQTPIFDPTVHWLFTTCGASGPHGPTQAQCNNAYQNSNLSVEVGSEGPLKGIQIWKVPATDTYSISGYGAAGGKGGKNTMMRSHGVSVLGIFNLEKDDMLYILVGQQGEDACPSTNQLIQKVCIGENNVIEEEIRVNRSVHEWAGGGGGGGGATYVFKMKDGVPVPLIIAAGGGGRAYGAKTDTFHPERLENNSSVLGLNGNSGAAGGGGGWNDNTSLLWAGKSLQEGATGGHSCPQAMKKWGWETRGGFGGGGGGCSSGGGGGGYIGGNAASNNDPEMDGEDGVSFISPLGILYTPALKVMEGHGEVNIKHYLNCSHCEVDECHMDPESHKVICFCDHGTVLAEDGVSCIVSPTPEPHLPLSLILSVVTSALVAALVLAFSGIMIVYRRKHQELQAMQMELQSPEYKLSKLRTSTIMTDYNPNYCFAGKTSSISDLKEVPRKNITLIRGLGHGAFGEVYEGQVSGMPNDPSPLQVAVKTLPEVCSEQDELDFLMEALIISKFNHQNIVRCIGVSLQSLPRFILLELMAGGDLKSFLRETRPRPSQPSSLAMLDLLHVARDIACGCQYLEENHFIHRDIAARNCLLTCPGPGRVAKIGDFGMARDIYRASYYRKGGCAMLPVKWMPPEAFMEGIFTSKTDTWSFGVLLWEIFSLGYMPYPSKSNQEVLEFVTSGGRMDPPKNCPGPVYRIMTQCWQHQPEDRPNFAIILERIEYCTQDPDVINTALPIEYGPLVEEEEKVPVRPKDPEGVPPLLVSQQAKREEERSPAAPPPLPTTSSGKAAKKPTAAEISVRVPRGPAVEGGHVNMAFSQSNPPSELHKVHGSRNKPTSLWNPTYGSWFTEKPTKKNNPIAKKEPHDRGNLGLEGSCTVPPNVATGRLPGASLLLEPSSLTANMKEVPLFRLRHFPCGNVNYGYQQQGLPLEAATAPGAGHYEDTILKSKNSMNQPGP
# assay notes: ALK HTRF kinase assay
# Assay type: biochemical
# measurement context: Table B1; cells without percent sign
Where a name gives a salt, the structure may show the parent alone.
quantity: IC50 (nM)

molecule | quantity | unit name | observed measurement
N#Cc1ccc(S(=O)(=O)Nc2ccc3cc2CCc2cccc(c2)Nc2ncc(Cl)c(n2)N3)cc1 [Example B154, trifluoroacetate] | IC50 | nM | 280
O=C(Nc1ccccc1)Nc1ccc2cc1CCc1cccc(c1)Nc1ncc(Cl)c(n1)N2 [Example B83, trifluoroacetate] | IC50 | nM | 780
O=S(=O)(Nc1ccc2cc1CCc1cccc(c1)Nc1ncc(Cl)c(n1)N2)c1ccccc1 [Example B136, trifluoroacetate] | IC50 | nM | 240

(P) O=C(Nc1ccc2cc1CCc1cccc(c1)Nc1ncc(Cl)c(n1)N2)c1cnccn1 [Example B44, bis(trifluoroacetate)]
(Q) Brc1cnc2nc1Nc1cccc(c1)CCc1cccc(c1)N2 [Example B3, trifluoroacetate]
(R) CCC(C)C(=O)Nc1ccc2cc1CCc1cccc(c1)Nc1ncc(Cl)c(n1)N2 (centres unmarked) [Example B61, trifluoroacetate]
Put the molecules in ascending order of IC50. Please list the labels in the order you were asked to rank them.
P, R, Q

(a) CCS(=O)(=O)Nc1ccc2cc1CCc1cccc(c1)Nc1ncc(Cl)c(n1)N2 [Example B141, trifluoroacetate]
(b) Cc1cccc(S(=O)(=O)Nc2ccc3cc2CCc2cccc(c2)Nc2ncc(Cl)c(n2)N3)c1 [Example B148, trifluoroacetate]
Lab notebook, comparison: a versus b , higher IC50 goes to which? Answer format: the label of the selected item.
a
